Attribution: patent US9023793B2

experiment: clinical; details: human, in vivo, inhaled or intranasal, 400 ug
*1 amine or outer side, *2 acyl side, *3 side chain or, on linkers, in order; H or OH if unused. Where a SMILES comes first, the peptide text is derived from it. Bridges are numbered along the chain shown (N, C = ends). X1 = O=C(CCC[*:2])[*:1]
PARAMETER MEASURED: Cmax (ng/mL)
Please state the figure in ng/mL; there is no need to write the unit.

Task item: Requested field: Cmax. Item: CC[C@H](C)[C@@H]1NC(=O)[C@H](Cc2ccc(OC)cc2)NC(=O)CCCSC[C@@H](C(=O)N2CCC[C@H]2C(=O)N[C@@H](CC(C)C)C(=O)NCC(N)=O)NC(=O)[C@H](CC(N)=O)NC(=O)[C@H](CCC(N)=O)NC1=O [carbetocin] (Y(Me)IQNCPLG-NH2; linker N-5 via X1 (inferred))
Reply: 0.608
